These entries and their values trace back to patent US20230089368A1.

Tested on: satellite-like cells (Pax7-positive cells) in hMP
TEST_DESCRIPTION: Myotube assay: Pax7-positive (satellite-like) cell quantification
Assay type: cell-based, human
Set-up: key: −: Depletes the pool of cells, while positively affects the myotubes; +: Maintains or increases the pool of cells, with at least 1 of the highest concentration known to be cytotoxic; ++: Maintains or increases the pool of cells, without any toxicity
CONDITION_DETAILS: myotube assay, compounds incubated 3 days
Source text: The efficacy of said compound for use in treating, ameliorating, delaying, curing and/or preventing a disease or condition associated with muscle cells and/or satellite cells is positively correlated with the generation of myotubes (i.e. the increase of the area occupied by myotubes on the assay) and/or satellite cells (i.e. the increase of the number of satellite cells) in the assay after adding said compound. […]

SMILES_REPRESENTATION	Pax7% (pool of Pax7-positive cells)
Cc1cc(NC(=O)Nc2ccc(Oc3ccnc4[nH]c(=O)cnc34)cc2F)n(-c2ccccc2)n1	++
CSc1cc(Oc2ccnc3c2CCC(=O)N3)ccc1NC(=O)Nc1cc(C(C)(C)C)no1	+
CC(C)(C)c1cc(NC(=O)Nc2ccc(Oc3ccnc4[nH]c(=O)cnc34)cc2C(F)(F)F)n(-c2ccccc2)n1	++
CSc1cc(Oc2ccnc3[nH]c(=O)cnc23)ccc1NC(=O)Nc1cc(C(C)(C)C)nn1-c1ccc(C)nc1	+

###

Test system: muscle progenitors (hMP) from DMD hiPSC or WT hiPSC
TEST_DESCRIPTION: Myotube assay: myogenic activity (total myotube area per well)
Assay type: cell-based, human
CONDITION_DETAILS: Homo sapiens, 72 h; myotube assay, compounds incubated 3 days; read-out: MA (normalized Myotube Area, efficacy)

MOLECULE	SYSTEM_TESTED	Emax
CSc1cc(Oc2ccnc3c2CCC(=O)N3)ccc1NC(=O)Nc1cncc(C(F)(F)F)c1 [(cg)]	muscle progenitors (hMP) from DMD hiPSC or WT hiPSC	≥ 75%
CC(C)(C)c1cc(NC(=O)Nc2ccc(Oc3ccc(F)cc3)cc2F)n(-c2ccccc2)n1 [(af)]	muscle progenitors (hMP) from DMD hiPSC or WT hiPSC	25 to 50%
Cc1nc2c(Oc3ccc(NC(=O)Nc4cc(C(C)(C)C)nn4-c4ccccc4)c(F)c3)ccnc2c(=O)[nH]1 [(w)]	muscle progenitors (hMP) from DMD hiPSC or WT hiPSC	50 to 75%
CC(C)(C)c1cnc(NC(=O)Nc2ccc(Oc3ccnc4[nH]c(=O)cnc34)c3ccccc23)s1 [(ba)]	muscle progenitors (hMP) from DMD hiPSC or WT hiPSC	≥ 75%

###

Tested on: muscle progenitors (hMP) from DMD hiPSC or WT hiPSC
TEST_DESCRIPTION: Myotube assay: myogenic activity (total myotube area per well)
Assay type: cell-based, human
CONDITION_DETAILS: Homo sapiens, 72 h; myotube assay, compounds incubated 3 days; read-out: MA (normalized Myotube Area, efficacy)
Procedure: An in vitro assay for assessing the efficacy of compounds for use in treating, ameliorating, delaying, curing and/or preventing a disease or condition associated with muscle cells and/or satellite cells is described in example 78. Herein, the generation of myotubes and satellite cells after adding a compound to a myotube assay workflow is assessed. Said myotube assay workflow is derived from wild-type or DMD human induced pluripotent stem cells (WT hiPSC or DMD hiPSC). […]

SMILES_REPRESENTATION	Emax
CSc1cc(Oc2ccnc3[nH]c(=O)cnc23)ccc1NC(=O)Nc1cc(C(C)(C)C)nn1-c1ccc(F)c(Cl)c1	≥ 75%
CSc1cc(Oc2ccnc3[nH]c(=O)[nH]c23)ccc1NC(=O)Nc1cc(C(C)(C)C)nn1-c1ccccc1	≥ 75%
CNC(=O)c1cc(Oc2ccc(NC(=O)Nc3cc(C(C)(C)C)nn3-c3ccc4ncccc4c3)c3ccccc23)ccn1	≥ 75%
CC(C)n1nc(C(C)(C)C)cc1NC(=O)Nc1ccc(Oc2ccnc3[nH]c(=O)cnc23)cc1F	50 to 75%
CC(C)(C)c1cc(NC(=O)Nc2ccc(Oc3ccnc4[nH]c(=O)cnc34)c(F)c2F)n(-c2ccccc2)n1	≥ 75%
CSc1cc(Oc2ccnc(N(CCN(C)C)C(=O)OC(C)(C)C)c2)ccc1NC(=O)Nc1cc(C(C)(C)C)nn1-c1ccccc1	50 to 75%
CSc1cc(Oc2ccnc3[nH]c(=O)cnc23)ccc1NC(=O)Nc1cc(C(C)(C)C)nn1-c1ccc(C)c(Cl)c1	≥ 75%

###

Test system: muscle progenitors (hMP) from DMD hiPSC or WT hiPSC
TEST_DESCRIPTION: Myotube assay: myogenic activity (total myotube area per well)
Type: cell-based, human
CONDITION_DETAILS: Homo sapiens, 72 h; myotube assay, compounds incubated 3 days; read-out: MA (normalized Myotube Area, efficacy)
Procedure: An in vitro assay for assessing the efficacy of compounds for use in treating, ameliorating, delaying, curing and/or preventing a disease or condition associated with muscle cells and/or satellite cells is described in example 78. Herein, the generation of myotubes and satellite cells after adding a compound to a myotube assay workflow is assessed. Said myotube assay workflow is derived from wild-type or DMD human induced pluripotent stem cells (WT hiPSC or DMD hiPSC). […]
Measured Emax accompanies every entry in the list below.
MEASURED_PARAMETER: Emax

SMILES_REPRESENTATION	MEASURED_VALUE
CNCC(=O)Nc1cc(Oc2ccc(NC(=O)Nc3cc(C(C)(C)C)nn3-c3ccccc3)c(SC)c2)ccn1	≥ 75%
CSc1cc(Oc2ccnc3[nH]c(=O)cnc23)ccc1NC(=O)Nc1cc(C(C)(C)C)nn1-c1ccccc1Cl	≥ 75%
COc1ccccc1-n1nc(C(C)(C)C)cc1NC(=O)Nc1ccc(Oc2ccnc3[nH]c(=O)cnc23)cc1SC	≥ 75%
O=C(Nc1ccc(Oc2ccnc3[nH]c(=O)cnc23)cc1F)Nc1c2c(nn1-c1ccccc1)CCC2	25 to 50%

###

System: muscle progenitors (hMP) from DMD hiPSC or WT hiPSC
TEST_DESCRIPTION: Myotube assay: myogenic activity (total myotube area per well)
Format: cell-based, human
CONDITION_DETAILS: Homo sapiens, 72 h; myotube assay, compounds incubated 3 days; read-out: MA (normalized Myotube Area, efficacy)
Recorded measurements of Emax, one per entry

MOLECULE	SYSTEM_TESTED	Emax
CSc1cc(Oc2ccnc(NC(=O)CN(C)C(=O)OC(C)(C)C)c2)ccc1NC(=O)Nc1cc(C(C)(C)C)nn1-c1ccccc1	muscle progenitors (hMP) from DMD hiPSC or WT hiPSC	≥ 75%
CSc1cc(Oc2ccnc3[nH]c(=O)cnc23)ccc1NC(=O)Nc1cc(C(C)(C)C)no1	muscle progenitors (hMP) from DMD hiPSC or WT hiPSC	≥ 75%
CC(C)(C)c1cc(NC(=O)Nc2ccc(Oc3ccnc4[nH]c(=O)cnc34)cc2F)sn1	muscle progenitors (hMP) from DMD hiPSC or WT hiPSC	50 to 75%
CSc1cc(Oc2ccnc3[nH]c(=O)cnc23)ccc1NC(=O)Nc1cc(C(C)(C)C)nn1CCCN1CCOCC1	muscle progenitors (hMP) from DMD hiPSC or WT hiPSC	≥ 75%
CC(C)(C)c1nnc(NC(=O)Nc2ccc(Oc3ccnc4[nH]c(=O)cnc34)cc2F)s1 [(r)]	muscle progenitors (hMP) from DMD hiPSC or WT hiPSC	≥ 75%
CCOC(=O)Nc1cc(Oc2ccc(NC(=O)Nc3ncc(C(C)(C)C)s3)c3ccccc23)ccn1	muscle progenitors (hMP) from DMD hiPSC or WT hiPSC	≥ 75%
CSc1cc(Oc2ccncc2)ccc1NC(=O)Nc1cc(C(C)(C)C)nn1-c1ccccc1	muscle progenitors (hMP) from DMD hiPSC or WT hiPSC	25 to 50%
CSc1cc(Oc2ccnc3[nH]c(=O)cnc23)ccc1NC(=O)Nc1cc(C(C)(C)C)nn1-c1ccc(OCCN2CCOCC2)cc1	muscle progenitors (hMP) from DMD hiPSC or WT hiPSC	≥ 75%

###

Test system: satellite-like cells (Pax7-positive cells) in hMP
TEST_DESCRIPTION: Myotube assay: Pax7-positive (satellite-like) cell quantification
Assay type: cell-based, human
Parameters: key: −: Depletes the pool of cells, while positively affects the myotubes; +: Maintains or increases the pool of cells, with at least 1 of the highest concentration known to be cytotoxic; ++: Maintains or increases the pool of cells, without any toxicity
CONDITION_DETAILS: myotube assay, compounds incubated 3 days

SMILES_REPRESENTATION	Pax7% (pool of Pax7-positive cells)
CC(C)(C)c1cc(NC(=O)Nc2ccc(Oc3ccnc4[nH]c(=O)cnc34)c3ccccc23)n(-c2ccc3ncccc3c2)n1	+
CC(C)(C)c1cc(NC(=O)Nc2ccc(Oc3ccnc4[nH]c(=O)cnc34)cc2F)[nH]n1	+
CC(C)(C)c1cc(NC(=O)Nc2ccc(Oc3ccc(F)cc3)cc2F)n(-c2ccccc2)n1	++
CC(=O)n1nc(C(C)(C)C)cc1NC(=O)Nc1ccc(Oc2ccnc3[nH]c(=O)cnc23)cc1F	++

###

Test system: satellite-like cells (Pax7-positive cells) in hMP
TEST_DESCRIPTION: Myotube assay: Pax7-positive (satellite-like) cell quantification
Assay type: cell-based, human
Parameters: key: −: Depletes the pool of cells, while positively affects the myotubes; +: Maintains or increases the pool of cells, with at least 1 of the highest concentration known to be cytotoxic; ++: Maintains or increases the pool of cells, without any toxicity
CONDITION_DETAILS: myotube assay, compounds incubated 3 days
MEASURED_PARAMETER: Pax7% (pool of Pax7-positive cells)

COMPOUND	MEASURED_VALUE
CC(C)(C)c1cc(NC(=O)Nc2ccc(Oc3ccnc4[nH]c(=O)cnc34)c(OC(F)(F)F)c2)n(-c2ccccc2)n1 [(cp)]	+
CSc1cc(Oc2ccnc3[nH]c(=O)cnc23)ccc1NC(=O)Nc1ncc(C(C)(C)C)s1 [(ah)]	++
CC(C)(C)c1cc(NC(=O)Nc2ccc(Oc3ccncc3)cc2)n(-c2ccccc2)n1 [(bl)]	+
CSc1cc(Oc2ccnc3c2ncc(=O)n3C)ccc1NC(=O)Nc1cc(C(C)(C)C)nn1-c1ccccc1 [(au)]	++
CCOC(=O)Nc1cc(Oc2ccc(NC(=O)Nc3ncc(C(C)(C)C)s3)c(SC)c2)ccn1 [(df)]	+
CSc1cc(Oc2ccnc3[nH]c(=O)cnc23)ccc1NC(=O)Nc1nc(-c2ccc(F)c(F)c2)cs1 [(ax)]	++
CSc1cc(Oc2ccnc3[nH]c(=O)cnc23)ccc1NC(=O)Nc1cc(C(C)(C)C)nn1-c1ccc(C)c(Cl)c1 [(cl)]	+
O=C(Nc1ccc(Oc2ccnc3[nH]c(=O)cnc23)cc1F)Nc1cc(C2(C(F)(F)F)CC2)nn1-c1ccccc1 [(d)]	+
CC(C)c1cc(Oc2ccnc3[nH]c(=O)cnc23)ccc1NC(=O)Nc1cc(C(C)(C)C)nn1-c1ccccc1 [(bk)]	++
CSc1cc(Oc2ccnc3nccnc23)ccc1NC(=O)Nc1cc(C(C)(C)C)nn1-c1ccccc1 [(bs)]	++
CC(C)(C)c1nnc(NC(=O)Nc2ccc(Oc3ccnc4[nH]c(=O)cnc34)cc2F)s1 [(r)]	++
CSc1cc(Oc2ccnc3[nH]c(=O)cnc23)ccc1NC(=O)Nc1cc(C(C)(C)C)nn1-c1ccc(OCCN2CCOCC2)cc1 [(cf)]	−
CSc1cc(Oc2ccnc3c2OCCN3)ccc1NC(=O)Nc1cc(C(C)(C)C)nn1-c1ccccc1 [(cy)]	+
CSc1cc(Oc2ccnc3[nH]c(=O)cnc23)ccc1NC(=O)Nc1cc(C(C)(C)C)nn1-c1ccc(Cl)cc1 [(ao)]	++
CSc1cc(Oc2ccnc3[nH]c(=O)cnc23)ccc1NC(=O)Nc1cc(C(C)(C)C)no1 [(bx)]	++
CSc1cc(Oc2ccnc3[nH]c(=O)cnc23)ccc1NC(=O)Nc1cc(C(C)(C)C)nn1-c1ccc(OCCCN(C)C)cc1 [(cr)]	+
